- Test system: Plutella xylostella
- PROTOCOL DETAILS: Insecticidal activities to diamondback moth, feeding dipped leaves
- Format: in vivo
- RUN PARAMETERS: in vivo
READOUT TYPE: Plutella xylostella Mortality (%) 500 ppm
Respond with the bare value in %.

// Plutella xylostella Mortality (%) 500 ppm lookup, key: "Cc1ccc(C=C(C2=NCCN2Cc2ccc(Cl)nc2)[N+](=O)[O-])s1"
100

What about "Cc1ccc(C=C(C2=[N+](C)CCN2Cc2ccc(Cl)nc2)[N+](=O)[O-])o1.[Cl-]" ?
100

What about "CC[N+]1=C(C(=Cc2ccc([N+](=O)[O-])o2)[N+](=O)[O-])N(Cc2ccc(Cl)nc2)CC1.[Cl-]" ?
100

What about "C[N+]1=C(C(=Cc2ccoc2)[N+](=O)[O-])N(Cc2cnc(Cl)s2)CC1.[Cl-]" ?
100

What about "O=[N+]([O-])C(=Cc1ccco1)C1=NCCN1Cc1ccccc1" ?
25

###

- Test system: Pseudaletia separate Walker
- PROTOCOL DETAILS: Insecticidal activities to armyworm, leaf dipping and feeding
- Format: in vivo
- RUN PARAMETERS: 500 ppm, leaf dipping and feeding, counted after 24 hours
I'd appreciate it if you could supply Pseudaletia separate Walker Mortality (%) 500 ppm values for the items below.
Respond with the bare value in %.

// Pseudaletia separate Walker Mortality (%) 500 ppm lookup, key: O=[N+]([O-])/C(=C/c1ccoc1)C1=NCCN1Cc1ccc(Cl)nc1 [Compound 2]
100

What about O=[N+]([O-])C(=Cc1sc(Cl)cc1Cl)C1=NCCN1Cc1ccc(Cl)nc1 [Compound 24] ?
100

What about O=[N+]([O-])/C(=C/c1ccco1)C1=NCCN1Cc1cnc(Cl)s1 [Compound 68] ?
100

What about O=[N+]([O-])/C(=C/c1ccco1)C1=NCCN1CC1CCOC1 (stereo not drawn) [Compound 91] ?
98

What about O=[N+]([O-])/C(=C/c1ccco1)C1=NCCCN1Cc1ccc(Cl)nc1 [Compound 46] ?
100

What about O=[N+]([O-])/C(=C/c1cccs1)C1=NCCN1Cc1ccc(Cl)nc1 [Compound 16] ?
100

What about O=[N+]([O-])C(=Cc1cc(Br)co1)C1=NCCN1Cc1ccc(Cl)nc1 [Compound 7] ?
100

What about O=[N+]([O-])/C(=C/c1ccco1)C1=NCCN1Cc1ccc(Cl)nc1 [Compound 1] ?
100

What about O=[N+]([O-])/C(=C/c1ccc([N+](=O)[O-])o1)C1=NCCN1Cc1cnc(Cl)s1 [Compound 70] ?
98

###

- Test system: Nilaparvata lugens
- PROTOCOL DETAILS: Insecticidal activities to plant hopper, spraying method
- Format: in vivo
- RUN PARAMETERS: in vivo
- Description: Mortality (%)=(the number of the survival aphis in control group−the number of the survival aphis in the treatment group)/the number of the survival aphis in control group×100% (2): Insecticidal Activities to Plant hopper Plant hopper (Nilaparvata lugens), which belongs to Homoptera and has a piercing-sucking mouthpart, is a common insect for agricultural plant. Nilaparvata lugens was tested by spraying method. […]
READOUT TYPE: Nilaparvata lugens Mortality (%) 500 ppm
Respond with the bare value in %.

// Nilaparvata lugens Mortality (%) 500 ppm lookup, key: CCN(C(=NC)C(=Cc1ccoc1)[N+](=O)[O-])C(C)c1ccc(Cl)nc1 (centres unmarked)
44

What about CC(c1ccc(Cl)nc1)N1CCN=C1C(=Cc1ccc(Cl)o1)[N+](=O)[O-] (racemic) ?
100

What about "O=[N+]([O-])C(=Cc1cc(Cl)c(Cl)o1)C1=NCCN1Cc1cnc(Cl)s1" ?
100

What about "O=[N+]([O-])C(=Cc1ccsc1)C1=NCCN1Cc1ccc(Cl)nc1" ?
100

What about CC(=C(C1=NCCN1C(C)c1ccc(Cl)nc1)[N+](=O)[O-])c1ccsc1 (racemic) ?
100

What about "CN=C(NCc1ccc(Cl)nc1)C(=Cc1ccc(Cl)s1)[N+](=O)[O-]" ?
67

What about CN=C(C(=Cc1ccc(Br)o1)[N+](=O)[O-])N(C)Cc1ccc(Cl)nc1 [Compound 235] ?
86

What about "O=[N+]([O-])C(=Cc1ccccc1)C1=NCCN1Cc1ccc(Cl)nc1" ?
92
